# system-tested: T1, human B7-H4 extracellular domain (human, UniProt Q7Z7D3 29-258)
# T1 construct: For SPR it says only human B7-H4 ECD; also called Hu B7-H4 ECD; huB7-H4 ECD
# T1 sequence: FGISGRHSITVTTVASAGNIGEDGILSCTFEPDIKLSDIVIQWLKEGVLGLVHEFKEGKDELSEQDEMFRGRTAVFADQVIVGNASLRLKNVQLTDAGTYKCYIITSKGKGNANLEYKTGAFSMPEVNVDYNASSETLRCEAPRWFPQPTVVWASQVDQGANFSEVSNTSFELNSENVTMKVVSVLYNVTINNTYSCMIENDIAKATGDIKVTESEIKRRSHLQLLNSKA
# assay-procedure: SPR Biacore 8K 25 C; mAb captured on anti-human Fc, huB7-H4 ECD analyte, 1:1 fit;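 note: antibodies tested as IgG1, running buffer HBS-EP+ at pH 7.4, rate constants and affinity from a 1:1 Langmuir model fit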
endpoint-name: kon (M⁻¹ s⁻¹)
Report as a plain number; the unit M⁻¹ s⁻¹ is understood.

Noted for B7-H4 antibody 0056 (antibody, human IgG1, kappa, V domains shown, also called 33G4) VH: EVQLLESGGGLVQPGGSLRLSCAASGFTFSTYAMNWVRQAPGKGLAWVSAISGSGGSTYYADSVKGRFTISRDDSKNTLYLQMNSLRAEDTAVYYCAKVDVVARYYGMDVWGQGTTVTVSS VL: DIQMTQSPSTLSASVGDRVTITCRASQSISGWLAWYQQKPGKAPKLLIYEASSLESGVPSRFSGSGSGTEFTLTISSLQPDDFATYYCQQYKSYSWTFGQGTKVEIKR : its kon reads 574000
